Reference source: patent US6900216B2

- measured target: 5-HT reuptake sites (Rattus norvegicus, UniProt P31652)
- Construct: Frontal cortical tissue from the brains of male Charles River rats; from tissue; host or cells: rat frontal cortical membranes
- Sequence (P31652 whole entry): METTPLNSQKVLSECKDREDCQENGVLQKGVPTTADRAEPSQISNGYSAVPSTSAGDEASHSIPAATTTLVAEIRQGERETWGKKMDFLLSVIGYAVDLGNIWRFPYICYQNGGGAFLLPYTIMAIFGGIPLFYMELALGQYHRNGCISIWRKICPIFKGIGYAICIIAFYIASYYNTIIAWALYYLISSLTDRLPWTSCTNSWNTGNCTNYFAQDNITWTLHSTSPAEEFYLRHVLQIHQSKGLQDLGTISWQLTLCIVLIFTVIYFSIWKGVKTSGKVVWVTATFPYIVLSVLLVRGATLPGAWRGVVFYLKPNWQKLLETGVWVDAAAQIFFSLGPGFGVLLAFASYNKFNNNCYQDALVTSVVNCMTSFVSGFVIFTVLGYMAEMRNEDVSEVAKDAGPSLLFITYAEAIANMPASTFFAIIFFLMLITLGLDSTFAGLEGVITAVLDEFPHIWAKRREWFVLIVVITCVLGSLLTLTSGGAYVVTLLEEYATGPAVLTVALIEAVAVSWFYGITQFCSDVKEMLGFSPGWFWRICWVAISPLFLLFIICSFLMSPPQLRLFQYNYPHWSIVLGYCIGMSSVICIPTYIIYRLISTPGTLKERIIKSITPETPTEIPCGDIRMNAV
- measurement notes: 5-HT uptake: displacement of [3H]citalopram from 5-HT reuptake sites, rat frontal cortical membranes
- Assay type: binding
- measurement parameters: 10^−6 M test compound, single determination, [3H]citalopram
- Method: Frontal cortical tissue from the brains of male Charles River rats weighing 150-250 g was homogenised in ice-cold 50 mM Tris-HCl, pH 7.4 (when measured at 25° C.) containing 120 mM sodium chloride and 5 mM potassium chloride (Tris buffer; 1:30 w/v) and centrifuged at 40,000 g for 10 minutes. […] Firstly, specific binding of tritiated ligand in the absence (A) and presence (B) of test compound was determined: […]
experimental endpoint: inhibition at 1 µM (%)
Give bare numbers, in %.

A selection of reference data follows.
{"molecule": "Br.CC1=C(c2cc3c(C)cccc3s2)N2CCN=C2S1 [Example 16, hydrobromide]", "reported": 93}
{"molecule": "CC1=C(c2cccc3sc(C)cc23)N2CCN=C2S1.Cl [Example 33, hydrochloride]", "reported": 62}
{"molecule": "Br.CC1=C(c2cc3c(Cl)c(Cl)ccc3s2)N2CCN=C2S1 [Example 24, hydrobromide]", "reported": 97}

Go through the items and report each one's inhibition at 1 µM.
1. Cl.Fc1cccc2sc(C3=CSC4=NCCN34)cc12 [Example 5, hydrochloride]
2. Cc1cccc2sc(C3=CSC4=NCCN34)cc12.Cl [Example 14, hydrochloride]
3. Br.CC1=C(c2cc3c(Cl)cccc3s2)N2CCCN=C2S1 [Example 17, hydrobromide]
4. Br.CC1=C(c2cc3cccc(Cl)c3s2)N2CCN=C2S1 [Example 20, hydrobromide]
5. C=CC1=C(c2cccc3sccc23)N2CCN=C2S1.Cl [Example 39, hydrochloride]

1: 95; 2: 96; 3: 84; 4: 73; 5: 70

###

- measured target: 5-HT1A receptors (Rattus norvegicus, UniProt P19327)
- Sequence (P19327 1-422): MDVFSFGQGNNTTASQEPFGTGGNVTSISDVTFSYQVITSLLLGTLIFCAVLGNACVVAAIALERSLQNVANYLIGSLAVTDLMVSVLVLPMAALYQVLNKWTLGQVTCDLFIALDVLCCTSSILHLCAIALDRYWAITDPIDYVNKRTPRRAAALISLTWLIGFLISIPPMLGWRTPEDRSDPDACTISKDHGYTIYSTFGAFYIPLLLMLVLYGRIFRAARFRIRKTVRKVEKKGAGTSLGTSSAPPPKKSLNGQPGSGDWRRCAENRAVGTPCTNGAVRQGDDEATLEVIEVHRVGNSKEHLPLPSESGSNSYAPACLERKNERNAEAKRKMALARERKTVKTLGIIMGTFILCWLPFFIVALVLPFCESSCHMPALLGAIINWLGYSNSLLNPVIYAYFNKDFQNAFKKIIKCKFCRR
Ki under 0.04 µM gets yes, anything at or over 0.04 µM gets no.

{"compound": "Br.CC1=C(c2cc3c(F)cccc3s2)N2CCN=C2S1 [Example 7, hydrobromide]", "category label": "yes"}

Item CC1=C(c2cccc3ccsc23)N2CCN=C2S1.Cl [Example 23, hydrochloride] : Ki beneath 0.04 µM, strictly?
yes

Item Br.CC1=C(c2ccc3sccc3c2)N2CCN=C2S1 [Example 21, hydrobromide] : Ki beneath 0.04 µM, strictly?
yes

Item CSC1=C(c2cccc3sccc23)N2CCN=C2S1.O=C(O)/C=C/C(=O)O [Example 32, fumarate] : Ki beneath 0.04 µM, strictly?
no

Item CC1=C(c2cccc3sccc23)N2CCN=C2S1.Cl [Example 9, hydrochloride] : Ki beneath 0.04 µM, strictly?
yes

Item Br.Oc1cccc2sc(C3=CSC4=NCCN34)cc12 [Example 12, hydrobromide] : Ki beneath 0.04 µM, strictly?
no

Item Br.c1cc(C2=C(C3CC3)SC3=NCCN32)c2ccsc2c1 [Example 34, hydrobromide] : Ki beneath 0.04 µM, strictly?
no
